Assignment: determine reported INHIBITION for the given compounds.
system: Plasmodium berghei; assay: Screen against P. berghei liver stage (PbLuc), transformed with Luciferase, at 2uM; type: functional, HepG2; details: tested at 2 uM
Out of some 68,000 compounds screened, about 2,700 (4%) showed an effect of 50% or more. Many of the other results were omitted from the sample, so strong results are more common in it than they were.
Answer with the number, then the unit.

Examples with answers:
The reported INHIBITION of the compound CCS(=O)(=O)NCc1cccnc1N1CCCC(O)C1 (stereo unspecified) was -5.31%

The reported INHIBITION of the compound Cc1ccccc1CN(CCN(C)C)Cc1ccc(O)c(C(=O)O)c1 was 56.76%

The reported INHIBITION of the compound CN(CCNC(=O)N1CCN(Cc2ccon2)CC1)c1ccccc1 was -5.97%

The reported INHIBITION of the compound FC(F)(F)CCc1ccnc(NCc2csc(N3CCOCC3)n2)n1 was -17.11%

The reported INHIBITION of the compound Clc1cc(N2CCC(N3CCCC3)CC2)nc2[nH]ccc12 was 25.13%

Further cases:
The reported INHIBITION of the compound CCS(=O)(=O)N1CCc2c(nc(C3CCCN3)nc2NC)C1 (stereo unspecified) was 40.35%
